Item-by-item account of EC50
Test: Non-nucleoside inhibition of NS5B polymerase C316Y mutant in HCV genotype 1a by Taqman probe based RT-PCR analysis
Measure: EC50 (nM)

| Compound | Observed value |
| --- | --- |
| CNC(=O)c1c(-c2ccc(F)cc2)oc2cc(N(C)S(C)(=O)=O)c(-c3ccc4ncn(Cc5ccccc5)c(=O)c4c3)cc12 | 70 |
| CNC(=O)c1c(-c2ccc(F)cc2)oc2cc(N(C)S(C)(=O)=O)c(-c3ccc4c(n3)C(=O)N(Cc3ccc(F)cc3)CO4)cc12 | 3.5 |
| CNC(=O)c1c(-c2ccc(F)cc2)oc2cc(N(C)S(C)(=O)=O)c(-c3cc4c(=O)n(Cc5ccc(F)cc5)nnc4cc3F)cc12 | 5.6 |
| CNC(=O)c1c(-c2ccc(F)cc2)oc2cc(N(C)S(C)(=O)=O)c(-c3ccc4nc(COC)n(Cc5ccc(F)cc5)c(=O)c4c3)cc12 | 4.1 |
| CNC(=O)c1c(-c2ccc(F)cc2)oc2cc(N(C)S(C)(=O)=O)c(-c3ccc4c(n3)C(=O)N(c3ccc(F)cc3)CO4)cc12 | 452 |
| CNC(=O)c1c(-c2ccc(F)cc2)oc2cc(N(C)S(C)(=O)=O)c(-c3ccc4nc(C)n(Cc5ccc(F)cc5)c(=O)c4n3)cc12 | 36 |
| CNC(=O)c1c(-c2ccc(F)cc2)oc2cc(N(C)S(C)(=O)=O)c(-c3ccc4nnn(C(CO)c5ccc(F)cc5)c(=O)c4c3)cc12 (stereo not drawn) | 523 |
| CNC(=O)c1c(-c2ccc(F)cc2)oc2cc(N(C)S(C)(=O)=O)c(-c3ccc4nc(C)n(Cc5ccc(F)cc5OC)c(=O)c4c3)cc12 | 44 |
| CNC(=O)c1c(-c2ccc(F)cc2)oc2cc(N(C)S(C)(=O)=O)c(-c3cc(C)c4nnn(Cc5ccc(F)cc5)c(=O)c4c3)cc12 | 29 |
| CNC(=O)c1c(-c2ccc(F)cc2)oc2cc(N(C)S(C)(=O)=O)c(-c3ccc4nnn(Cc5ccc(F)cn5)c(=O)c4c3)cc12 | 29 |
| CNC(=O)c1c(-c2ccc(F)cc2)oc2cc(N(C)S(C)(=O)=O)c(-c3ccc4nc(C)n([C@H](COC)c5ccc(F)cc5)c(=O)c4c3)cc12 | 21 |
| CNC(=O)c1c(-c2ccc(F)cc2)oc2cc(N(C)S(C)(=O)=O)c(-c3ccc4nc(CNC(C)=O)n(Cc5ccc(F)cc5)c(=O)c4c3)cc12 | 32 |
| CNC(=O)c1c(-c2ccc(F)cc2)oc2cc(N(C)S(C)(=O)=O)c(-c3ccc4nnn([C@@H](COC)c5ccc(F)cc5)c(=O)c4c3)cc12 | 292 |
| CNC(=O)c1c(-c2ccc(F)cc2)oc2cc(N(C)S(C)(=O)=O)c(-c3ccc4nnn(C(C)c5ccc(F)cc5)c(=O)c4c3)cc12 (stereo not drawn) | 15 |
| CNC(=O)c1c(-c2ccc(F)cc2)oc2cc(N(C)S(C)(=O)=O)c(-c3ccc4nnn(Cc5ccccc5)c(=O)c4c3)cc12 | 68 |
| CNC(=O)c1c(-c2ccc(F)cc2)oc2cc(N(C)S(C)(=O)=O)c(-c3cc(OC)c4nnn(Cc5ccc(F)cc5)c(=O)c4c3)cc12 | 4.6 |
| CNC(=O)c1c(-c2ccc(F)cc2)oc2cc(N(C)S(C)(=O)=O)c(-c3ccc4nc(C)n(Cc5ccc(F)cn5)c(=O)c4c3)cc12 | 36 |
| CNC(=O)c1c(-c2ccc(F)cc2)oc2cc(N(C)S(C)(=O)=O)c(-c3cc4c(=O)n(Cc5ccc(F)cc5)nnc4cc3Cl)cc12 | 12 |
